Data provenance is ChEMBL document CHEMBL4706581.

The reader will find reported pIC50 values listed item by item below.
- assayed system: Cholinesterase (Equus caballus)
- test method notes: Inhibition of equine serum BChE using S-butyrylthiocholine iodide as substrate preincubated for 20 mins followed by substrate addition and measured every minute for 10 mins by DTNB-reagent based Ellman's method
pIC50: −log10 of the molar value.

Exercise: I'd like to know its pIC50. The molecule in question is COc1ccc2cc(C(=O)NCCc3cc[n+](Cc4ccccc4)cc3)ccc2c1.[Br-]
Key: 6.17

Exercise: What pIC50 value was documented for this molecule, O=C(Nc1cc[n+](Cc2ccccc2)cc1)c1ccc(OCc2ccccc2)cc1 ?
Key: < 6.00

Exercise: Could you tell me which pIC50 is on file for COc1ccc2cc(C(=O)Nc3cc[n+](Cc4ccccc4F)cc3)ccc2c1 ?
Key: < 6.00

Exercise: Bench note: what pIC50 did COc1ccc2cc(C(=O)NCCc3cc[n+](Cc4ccccc4F)cc3)ccc2c1 show?
Key: < 6.00

Exercise: Suppose we examine the molecule COc1ccc2cc(C(=O)NCCc3cc[n+](Cc4ccccc4Cl)cc3)ccc2c1 ; what pIC50 value has been reported?
Key: 6.08

Exercise: Can you share its pIC50? I mean this molecule: COc1ccc2cc(C(=O)Nc3cc[n+](Cc4ccccc4Cl)cc3)ccc2c1
Key: < 6.00

Exercise: Requested read-out: pIC50. Entry: CCOc1ccc(C(=O)Nc2cc[n+](Cc3ccccc3)cc2)cc1
Key: 4.90

Exercise: Please give the measured pIC50 for this molecule: COc1ccc2cc(C(=O)Nc3cc[n+](Cc4ccccc4C)cc3)ccc2c1
Key: < 6.00

----------
- assayed system: Acetylcholinesterase (Homo sapiens, UniProt P22303)
- Sequence (P22303 whole entry): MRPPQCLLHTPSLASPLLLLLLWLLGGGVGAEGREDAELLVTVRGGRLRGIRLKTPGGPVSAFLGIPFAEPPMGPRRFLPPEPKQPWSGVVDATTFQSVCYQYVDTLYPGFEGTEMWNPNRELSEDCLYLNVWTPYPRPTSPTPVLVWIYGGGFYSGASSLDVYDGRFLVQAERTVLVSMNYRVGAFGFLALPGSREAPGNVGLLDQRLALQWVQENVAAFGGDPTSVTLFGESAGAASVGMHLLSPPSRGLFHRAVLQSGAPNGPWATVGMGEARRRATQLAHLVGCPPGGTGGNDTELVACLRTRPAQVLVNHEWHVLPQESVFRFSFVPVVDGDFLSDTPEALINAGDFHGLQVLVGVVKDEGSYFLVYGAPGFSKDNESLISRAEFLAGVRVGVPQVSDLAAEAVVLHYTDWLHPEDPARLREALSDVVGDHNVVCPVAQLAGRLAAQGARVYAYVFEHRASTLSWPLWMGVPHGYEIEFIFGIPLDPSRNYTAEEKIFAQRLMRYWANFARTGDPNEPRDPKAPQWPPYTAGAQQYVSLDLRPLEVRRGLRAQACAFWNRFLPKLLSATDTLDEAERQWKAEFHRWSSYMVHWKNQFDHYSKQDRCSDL
- test method notes: Inhibition of recombinant human AChE
experimental readout: IC50 (nM)
Field: numeric (nM). Do not append units.

Exercise: Requested field: IC50. Item: COc1ccc2cc(C(=O)NCCC3CCN(Cc4ccccc4)CC3)ccc2c1
Key: 170

----------
- assayed system: Cholinesterase (Equus caballus, UniProt P81908)
- Sequence (P81908 whole entry): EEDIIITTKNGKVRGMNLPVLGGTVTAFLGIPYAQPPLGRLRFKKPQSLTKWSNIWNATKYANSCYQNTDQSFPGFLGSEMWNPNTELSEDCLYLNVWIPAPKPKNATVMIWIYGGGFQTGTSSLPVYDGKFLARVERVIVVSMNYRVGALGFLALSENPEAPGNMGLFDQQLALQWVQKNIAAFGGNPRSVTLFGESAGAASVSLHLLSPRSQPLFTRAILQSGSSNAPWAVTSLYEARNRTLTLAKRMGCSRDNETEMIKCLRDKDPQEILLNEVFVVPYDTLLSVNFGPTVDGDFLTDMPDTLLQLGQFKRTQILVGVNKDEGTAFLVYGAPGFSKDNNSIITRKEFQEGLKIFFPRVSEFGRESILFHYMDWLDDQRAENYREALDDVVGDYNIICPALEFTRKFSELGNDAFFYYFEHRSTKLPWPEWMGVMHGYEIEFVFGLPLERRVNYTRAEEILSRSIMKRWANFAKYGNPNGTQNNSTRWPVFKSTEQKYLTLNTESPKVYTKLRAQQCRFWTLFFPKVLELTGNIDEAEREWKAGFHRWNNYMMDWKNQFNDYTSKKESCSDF
- test method notes: Mixed type inhibition of equine serum BChE assessed as decrease in Vmax and increase in Km using varying level of S-butyrylthiocholine iodide as substrate preincubated for 20 mins followed by substrate addition and measured every minute for 10 mins by Lineweaver-Burk plot analysis
experimental readout: Ki (nM)
Return type: number; implicit unit nM.

Exercise: So what's the measured Ki for this one? COc1ccc2cc(C(=O)NCCC3CCN(Cc4ccccc4)CC3)ccc2c1
Key: 150

----------
The reader will find reported pIC50 values listed item by item below.
- assayed system: Acetylcholinesterase (Electrophorus electricus, UniProt O42275)
- Sequence (O42275 whole entry): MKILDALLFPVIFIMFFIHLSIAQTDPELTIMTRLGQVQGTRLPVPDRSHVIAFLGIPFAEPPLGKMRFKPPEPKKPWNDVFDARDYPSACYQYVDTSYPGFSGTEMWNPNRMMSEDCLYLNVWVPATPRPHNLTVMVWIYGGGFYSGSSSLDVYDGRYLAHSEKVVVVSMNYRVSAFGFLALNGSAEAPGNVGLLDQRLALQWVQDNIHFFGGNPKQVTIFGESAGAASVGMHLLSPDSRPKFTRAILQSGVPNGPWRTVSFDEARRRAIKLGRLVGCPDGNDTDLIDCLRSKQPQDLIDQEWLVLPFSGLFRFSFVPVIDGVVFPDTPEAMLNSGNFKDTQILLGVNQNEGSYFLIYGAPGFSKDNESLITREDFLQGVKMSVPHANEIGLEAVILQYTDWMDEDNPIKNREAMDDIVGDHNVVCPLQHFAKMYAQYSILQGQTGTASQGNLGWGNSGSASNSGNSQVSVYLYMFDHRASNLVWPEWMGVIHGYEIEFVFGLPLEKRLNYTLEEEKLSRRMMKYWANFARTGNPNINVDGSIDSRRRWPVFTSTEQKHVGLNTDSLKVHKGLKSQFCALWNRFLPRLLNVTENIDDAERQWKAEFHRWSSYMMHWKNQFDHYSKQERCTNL
Here pIC50 is given on a logarithmic scale as minus log10 of the concentration in mol/L.

Exercise: Which pIC50 is reported with Acetylcholinesterase (Electrophorus electricus, UniProt O42275) for this entry: N#Cc1ccc(C(=O)Nc2cc[n+](Cc3ccccc3)cc2)cc1 ?
Key: 6.33

Exercise: Can you look up pIC50 on Acetylcholinesterase (Electrophorus electricus, UniProt O42275) for COc1ccc2cc(C(=O)Nc3cc[n+](Cc4ccccc4C)cc3)ccc2c1 ?
Key: 6.36

----------
Attribute: IC50
- assayed system: Acetylcholinesterase (Electrophorus electricus, UniProt O42275)
Write the answer as a number in nM, unit excluded.

Exercise: Can you share its IC50? I mean this molecule: O=C(Nc1cc[n+](Cc2ccccc2)cc1)c1ccc(-c2ccccc2)cc1
Key: 770

Exercise: Which IC50 is listed for COc1ccc2cc(C(=O)NCCc3cc[n+](Cc4ccc(F)cc4)cc3)ccc2c1 ?
Key: 740

Exercise: # IC50 lookup, item COc1ccc2cc(C(=O)Nc3cc[n+](Cc4ccccc4)cc3)ccc2c1
Key: 218

Exercise: Form field: reported IC50 of COc1ccc2cc(C(=O)Nc3cc[n+](Cc4ccc(F)cc4)cc3)ccc2c1
Key: 210

Exercise: // lookup IC50 for COc1ccc2cc(C(=O)Nc3cc[n+](Cc4ccccc4F)cc3)ccc2c1
Key: 210

Exercise: Which IC50 value belongs to COc1ccc2cc(C(=O)NCCc3cc[n+](Cc4cccc(Cl)c4)cc3)ccc2c1 ?
Key: 610

Exercise: # input molecule: COc1ccc2cc(C(=O)Nc3cc[n+](Cc4ccc(Cl)cc4)cc3)ccc2c1 ; wanted: its IC50
Key: 900

Exercise: Bench note: what IC50 did COc1ccc2cc(C(=O)NCCc3cc[n+](Cc4ccc([N+](=O)[O-])cc4)cc3)ccc2c1 show?
Key: 740

Exercise: Look up IC50: COc1ccc2cc(C(=O)NCCc3cc[n+](Cc4ccccc4F)cc3)ccc2c1
Key: 280

Exercise: Requested read-out: IC50. Entry: COc1ccc2cc(C(=O)Nc3cc[n+](Cc4ccccc4[N+](=O)[O-])cc3)ccc2c1
Key: 480

Exercise: Give its IC50 value. Item: COc1ccc2cc(C(=O)NCCc3cc[n+](Cc4ccccc4[N+](=O)[O-])cc3)ccc2c1
Key: 280

Exercise: Look at this molecule and give its reported IC50. COc1ccc2cc(C(=O)NCCc3cc[n+](Cc4ccccc4Cl)cc3)ccc2c1
Key: 500

Exercise: IC50 lookup needed for COc1ccc2cc(C(=O)NCCc3cc[n+](Cc4ccccc4C)cc3)ccc2c1 , thanks.
Key: 1080

Exercise: Could you share which IC50 value was measured for COc1ccc2cc(C(=O)NCCc3cc[n+](Cc4ccccc4)cc3)ccc2c1.[Br-] ?
Key: 770

Exercise: Dear colleague, I am looking for the recorded IC50 of the following molecule: CC(C)c1ccc(C(=O)Nc2cc[n+](Cc3ccccc3)cc2)cc1
Key: 852

Exercise: # get_value(readout='IC50', item= O=C(Nc1cc[n+](Cc2ccccc2)cc1)c1ccc(OCc2ccccc2)cc1 )
Key: 360

Exercise: Endpoint output: IC50 of CCOc1ccc(C(=O)Nc2cc[n+](Cc3ccccc3)cc2)cc1 . Value?
Key: 201

Exercise: Return reported IC50; argument: O=C(Nc1cc[n+](Cc2ccccc2)cc1)c1ccc2cc(Br)ccc2c1
Key: 1440

----------
- test method notes: Effective permeability of compound by PAMPA-BBB assay
- Type: ADME
- setup conditions: read-out: Peff
experimental readout: Papp (×10⁻⁶ cm/s)
The reply should be a number in ×10⁻⁶ cm/s, with the unit left off.

| smiles code | unit spec | meas value |
| --- | --- | --- |
| COc1ccc2cc(C(=O)NCCC3CCN(Cc4ccccc4)CC3)ccc2c1 | ×10⁻⁶ cm/s | 6.9 |

Please find the next compound below.
Exercise: Suppose we examine the compound COc1ccc2cc(C(=O)NCCc3cc[n+](Cc4ccccc4)cc3)ccc2c1.[Br-] ; what Papp value has been reported?
Key: 1.3

----------
The following molecules have recorded IC50 on Acetylcholinesterase (Electrophorus electricus, UniProt O42275).
Write the number in nM without appending the unit.

| smiles code | meas value |
| --- | --- |
| COc1cc(OC)cc(C(=O)Nc2cc[n+](Cc3ccccc3)cc2)c1 | 202 |
| COc1ccc2cc(C(=O)Nc3cc[n+](Cc4ccccc4Cl)cc3)ccc2c1 | 340 |
| COc1ccc(C(=O)Nc2cc[n+](Cc3ccccc3)cc2)cc1 | 216 |

Proceed to the following item.
Exercise: Form field - read-out: IC50; system: Acetylcholinesterase (Electrophorus electricus, UniProt O42275); submitted item: COc1ccc(C(=O)Nc2cc[n+](Cc3ccccc3)cc2)cc1OC
Key: 420
